Attribute: Cell viability at 300 nM (%)
- Test system: MRC5 cells
- Procedure Summary: Cell viability assay in MRC5 cells (MTT)
- Run Parameters: 300 nM
Attribute Measured: Cell viability at 300 nM (%)

INSERT INTO results (molecular_string, study_target, attribute_measured, unit_descriptor, result_number) VALUES
  ('COC(=O)c1cc2c(cc1C)/C(=C(/Nc1ccc(C(=O)NCCN3CCCN(C)CC3)cc1)c1ccccc1)C(=O)N2', 'MRC5 cells', 'Cell viability at 300 nM (%)', '%', 81),
  ('COC(=O)c1cc2c(cc1C)/C(=C(/Nc1ccc(C(=O)N3CCCN(CCO)CC3)cc1)c1ccccc1)C(=O)N2', 'MRC5 cells', 'Cell viability at 300 nM (%)', '%', 80.2),
  ('COC(=O)c1cc2c(cc1C)/C(=C(/Nc1ccc(C(=O)N3CCN(CCO)CC3)cc1)c1ccccc1)C(=O)N2', 'MRC5 cells', 'Cell viability at 300 nM (%)', '%', 71.8),
  ('COC(=O)c1cc2c(cc1C)/C(=C(/Nc1ccc(C(=O)NCCN3CCNC(=O)C3)cc1)c1ccccc1)C(=O)N2', 'MRC5 cells', 'Cell viability at 300 nM (%)', '%', 103.6),
  ('COC(=O)c1cc2c(cc1C)/C(=C(/Nc1ccc(C(=O)NCC(=O)N3CCN(CCO)CC3)cc1)c1ccccc1)C(=O)N2', 'MRC5 cells', 'Cell viability at 300 nM (%)', '%', 97.2),
  ('COC(=O)c1cc2c(cc1C)/C(=C(/Nc1ccc(C(=O)NCC3(N(C)C)CCC3)cc1)c1ccccc1)C(=O)N2', 'MRC5 cells', 'Cell viability at 300 nM (%)', '%', 88),
  ('COC(=O)c1cc2c(cc1C)/C(=C(/Nc1ccc(C(=O)N3CCC4(CC3)C(=O)NCCN4C)cc1)c1ccccc1)C(=O)N2', 'MRC5 cells', 'Cell viability at 300 nM (%)', '%', 85.3),
  ('COC(=O)c1cc2c(cc1C)/C(=C(/Nc1ccc(C(=O)NCC(=O)N3CCN(C)CC3)cc1)c1ccccc1)C(=O)N2', 'MRC5 cells', 'Cell viability at 300 nM (%)', '%', 108.2);
